B1: full-length GTP-bound Rab6a/Q72L with N-terminal GST tag [human] / BicD2-CTD (C-terminal cargo-binding domain of human Bicaudal D2, residues 715-804) [human] (parent)
chain 1: YENEKAMVTETMMKLRNELKALKEDAATFSSLRAMFATRCDEYITQLDEMQRQLAAAEDEKKTLNSLLRMAIQQKLALTQRLELLELDHE
chain 2: MSTGGDFGNPLRKFKLVFLGEQSVGKTSLITRFMYDSFDNTYQATIGIDFLSKTMYLEDRTVRLQLWDTAGLERFRSLIPSYIRDSTVAVVVYDITNVNSFQQTTKWIDDVRTERGSDVIIMLVGNKTDLADKRQVSIEEGERKAKELNVMFIETSAKAGYNVKQLFRRVAAALPGMESTQDRSREDMIDIKLEKPQEQPVSEGGCSC

Variants of: B1
Assay: GST pull-down, SDS-PAGE band quantification
Conditions: with BicD2-CTD (C-terminal cargo-binding domain of human Bicaudal D2, residues 715-804) [human]; parent: 1; read off a plot
Hi there, I'd appreciate the recorded ratio to parent for every entry that follows.

// worked examples, ratio to parent included
sequence-variant | ratio to parent
chain 2 W67A | 0.09
chain 2 S23A | 0.96
chain 2 T45A | 0.01
chain 2 Q22A | 0.97
chain 2 T69A | 0.07

Next:
Incoming: State its ratio to parent: chain 2 F38A
Outgoing: 0.01
